- experimental target: Gamma-aminobutyric acid receptor subunit alpha-5 (Homo sapiens, UniProt P18507+P31644+P47870)
- Sequence (P31644 whole entry, one chain of several): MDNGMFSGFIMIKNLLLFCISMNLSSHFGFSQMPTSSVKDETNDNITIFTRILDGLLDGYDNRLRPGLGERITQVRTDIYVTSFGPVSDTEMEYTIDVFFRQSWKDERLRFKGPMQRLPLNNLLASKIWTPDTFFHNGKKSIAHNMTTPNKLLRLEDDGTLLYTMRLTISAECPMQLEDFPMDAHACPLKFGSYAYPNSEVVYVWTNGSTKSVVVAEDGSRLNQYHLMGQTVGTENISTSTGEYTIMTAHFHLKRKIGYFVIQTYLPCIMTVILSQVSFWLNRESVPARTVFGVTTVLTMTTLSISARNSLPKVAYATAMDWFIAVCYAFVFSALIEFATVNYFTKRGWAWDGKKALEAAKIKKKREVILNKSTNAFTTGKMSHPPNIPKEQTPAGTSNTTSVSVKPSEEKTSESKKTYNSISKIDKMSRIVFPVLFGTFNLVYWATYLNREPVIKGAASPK
- measurement protocol: Binding affinity to GABAA alpha-5-beta-2-gamma-2 receptor
parameter measured: Kd (nM)
One number for each entry, in nM.

compound=C#Cc1ccc2c(c1)C(c1ccccc1)=NCC(=O)N2C value_reported=7
compound=CCOc1cc2c(cn1)[nH]c1ccccc12 value_reported=826
compound="O=C1C2C=Nc3ccccc3C2=NN1c1ccccc1 (centres undefined) [CGS-8216]" value_reported=200

Provide each entry's Kd from the list below.
1. Cn1c(=O)c2cc(C#C[Si](C)(C)C)ccc2n2cnc(C(=O)OC(C)(C)C)c12
2. CCOC(=O)c1ncn2c1[C@@H]1CCN1C(=O)c1cc(C#C[Si](C)(C)C)ccc1-2
3. CCCOc1cc2c(cn1)[nH]c1ccccc12
4. CCOC(=O)c1ncn2c1C1CCCN1C(=O)c1cc(C#C[Si](C)(C)C)ccc1-2 (centres undefined)

58
2.6
591
4

Provide each entry's Kd from the list below.
1. CC(C)(C)OC(=O)c1cc2c3ccccc3nc-2c[nH]1
2. CCOC(=O)c1ncn2c3ccc(C#C[Si](C)(C)C)cc3c(=O)n(C)c12

111
5
